tested-on: Transcriptional activator protein LuxR (Aliivibrio fischeri, UniProt P12746)
Sequence (P12746 whole entry): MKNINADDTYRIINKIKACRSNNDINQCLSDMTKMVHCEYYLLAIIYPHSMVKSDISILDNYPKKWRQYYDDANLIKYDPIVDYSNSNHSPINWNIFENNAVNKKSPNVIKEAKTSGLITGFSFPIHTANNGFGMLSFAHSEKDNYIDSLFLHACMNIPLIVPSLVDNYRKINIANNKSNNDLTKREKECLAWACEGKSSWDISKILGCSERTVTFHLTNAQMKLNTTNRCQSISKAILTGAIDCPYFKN
test-details: Inhibition of LuxR-dependent Vibrio fischeri quorum sensing assessed as reduction in 3-oxo-hexanoyihomoserine-induced bioluminescence
measure: log10(IC50) (log10 of the value in µM)

[
  {
    "cpd-smiles": "CCCCCC(=O)NC1=C(Cl)COC1=O",
    "test-result": 0.84
  },
  {
    "cpd-smiles": "CCCCCC(=O)NC1=C(Br)COC1=O",
    "test-result": 0.81
  },
  {
    "cpd-smiles": "CCCC(=O)CC(=O)NC1=CCOC1=O",
    "test-result": 1.74
  },
  {
    "cpd-smiles": "CCCCCC(=O)NC1=CCOC1=O",
    "test-result": 1.93
  },
  {
    "cpd-smiles": "O=C(CCCc1ccccc1)NC1=C(Br)COC1=O",
    "test-result": 1.92
  }
]
